- target system: AMPK
- assay name: AMPK activation, enzyme-linked immunosorbent assay
- Assay type: biochemical
- condition details: Table 14, compounds of Table 7
- Procedure: Compounds of Table 1 were assayed for their ability to activate AMPK using an enzyme-linked immunosorbent assay. Compounds of Table 2 were assayed for their ability to activate AMPK using an enzyme-linked immunosorbent assay. Compounds of Table 3 were assayed for their ability to activate AMPK using an enzyme-linked immunosorbent assay. Compounds of Table 4 were assayed for their ability to activate AMPK using an enzyme-linked immunosorbent assay. […]
property name: EC50

compound: CS(=O)(=O)c1ccc(OC2CCN(C(=O)c3ccc(C(=O)Nc4ccc(Oc5ccc(S(F)(F)(F)(F)F)cc5)nc4)cn3)CC2)cc1 [Compound 7-1]
property name: EC50
observed: 1000 to 10000 nM
--
compound: CCNS(=O)(=O)c1ccc(CN2CCN(C(=O)c3ccc(C(=O)Nc4ccc(Oc5ccc(C(C)=O)cc5)nc4)cn3)CC2)cc1 [Compound 7-92]
property name: EC50
observed: 1000 to 10000 nM
--
compound: COc1ccc(C(=O)C2CCN(C(=O)c3ncc(C(=O)NC4CCN(Cc5ccc(C#N)cc5)CC4)cc3CCCNC(=O)CCOCCOCCOCCOCCNC(=O)CCCC[C@@H]3SC[C@@H]4NC(=O)N[C@@H]43)CC2)cc1 [Compound 7-19]
property name: EC50
observed: 10000 to 20000 nM
--
compound: CS(=O)(=O)c1ccc(N2CCN(c3ccc(C(=O)NC4CCN(Cc5ccc(C#N)cc5)CC4)cn3)CC2)cc1 [Compound 7-77]
property name: EC50
observed: < 1000 nM
--
compound: COc1ccc(C(=O)C2CCN(C(=O)c3ccc(C(=O)NC4CCN(Cc5cccc(C(F)(F)F)c5)C[C@@H]4F)cn3)CC2)cc1 (stereo partly drawn) [Compound 7-34]
property name: EC50
observed: < 1000 nM
--
compound: COc1ccc(CN2CCC(NC(=O)c3ccc(C(=O)N4CCC(C(=O)c5ccc(OC)cc5)CC4)nc3)[C@@H](C(F)(F)F)C2)cc1 (stereo partly drawn) [Compound 7-102]
property name: EC50
observed: < 1000 nM
